Cited source for all entries: the supplement of paper PMC10065799

Study system: EPHB1 (UniProt P54762)
Sequence (P54762 whole entry, looked up): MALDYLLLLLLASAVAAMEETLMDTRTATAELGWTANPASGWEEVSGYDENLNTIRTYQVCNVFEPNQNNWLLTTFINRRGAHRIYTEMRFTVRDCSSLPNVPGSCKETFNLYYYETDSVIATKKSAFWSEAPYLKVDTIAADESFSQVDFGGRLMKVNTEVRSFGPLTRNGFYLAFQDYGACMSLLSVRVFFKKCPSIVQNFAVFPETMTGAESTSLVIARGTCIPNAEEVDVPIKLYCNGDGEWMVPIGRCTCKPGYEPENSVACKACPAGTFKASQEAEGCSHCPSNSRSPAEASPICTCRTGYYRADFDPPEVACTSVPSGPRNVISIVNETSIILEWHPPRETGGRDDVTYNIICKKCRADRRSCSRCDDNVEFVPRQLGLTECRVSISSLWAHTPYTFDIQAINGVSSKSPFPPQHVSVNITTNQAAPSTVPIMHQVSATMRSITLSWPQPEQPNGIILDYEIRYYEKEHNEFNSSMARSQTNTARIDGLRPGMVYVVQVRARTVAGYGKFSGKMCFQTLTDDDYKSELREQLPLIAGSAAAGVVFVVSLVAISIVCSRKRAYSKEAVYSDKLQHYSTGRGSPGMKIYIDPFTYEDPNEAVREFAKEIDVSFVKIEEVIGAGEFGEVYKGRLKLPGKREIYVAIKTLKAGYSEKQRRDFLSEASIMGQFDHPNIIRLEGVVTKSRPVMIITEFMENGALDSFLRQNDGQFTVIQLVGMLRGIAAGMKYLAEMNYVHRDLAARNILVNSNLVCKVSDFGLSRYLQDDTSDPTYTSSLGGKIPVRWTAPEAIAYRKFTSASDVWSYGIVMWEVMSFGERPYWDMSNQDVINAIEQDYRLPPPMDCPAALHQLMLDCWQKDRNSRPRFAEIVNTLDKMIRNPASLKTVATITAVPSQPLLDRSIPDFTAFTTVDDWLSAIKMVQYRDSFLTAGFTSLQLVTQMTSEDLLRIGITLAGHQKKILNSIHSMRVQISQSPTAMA
Method: phosphorylation enrichment, bacterial display (enrichment ratio); higher = better substrate or ligand; peptides without Tyr show the background;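 further: 11-residue human phosphosite peptides and single-mutation variants displayed on the E. coli surface, counted by deep sequencing, each peptide's frequency after selection divided by its frequency in the unselected input library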;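 further: frequency after pTyr selection over input frequency; kinase dosed for 20-30% of maximal phosphorylation in three min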
Overview of recorded phosphorylation enrichment for various sequences
The answer should be written as a number, with no unit following it.

ENRKFYMDLKE [PURA_Y156_YF]	0.492
PSSRDYKDNIK [PIGN_Y227_H229D]	0.595
VQDPAYLRDIN [OPRK1_Y369_D374N]	0.608
NGTVSYAIVAG [CDH23_Y1672_T1671S]	0.661

Below: the item to evaluate.
Please give the measured phosphorylation enrichment for this sequence: DVLEFCNSKKT [PAK1_Y131_Y131C]
0.459
